ASSAY INFO: inhibitors of Sendai virus-induced IRF3 signaling, primary screen, TLR/RLR signaling modifier project, cell-based, Sendai virus stimulus, luciferase, 10K MLSCN set (AID 602276);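 further: firefly luciferase from ISG56 promoter only with Renilla not read in this screen; 0% = Sendai virus plus DMSO and 100% = medium plus DMSO without virus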
CONDITION PARAMETERS: HEK293 RL24 IRF3 luciferase reporter, at 10 µM, stronger effect = higher value
QUANTITY: inhibition (%)
Dear colleague, please return just the value in %, with no unit written.

Illustrative cases are given below, each with its answer.
CCn1nc(NC(=O)c2cccnc2)c2cc3ccccc3nc21
10.7
CCOC(=O)C1CSc2[nH]c(=O)sc2C1c1ccccc1 (stereo unspecified)
5.91

Exercise: Which inhibition value is on record for CC(=O)Nc1ccc(-c2cc3ccccc3o2)cc1 ?
Key: -24.7

Exercise: Which inhibition value is on record for COc1cccc(-c2nnc3sc(C4CCCCC4)nn23)c1 ?
Key: 28.7

Exercise: Which inhibition value is on record for COc1cccc(NC(=O)CC2SC(=Nc3ccccc3)NC2=O)c1 (stereo unspecified) ?
Key: -8.37

Exercise: Which inhibition value is on record for CCCCCC(=O)O[C@]1(C(C)=O)CC[C@H]2[C@@H]3CCC4=CC(=O)CC[C@]4(C)[C@H]3CC[C@@]21C ?
Key: 0.124

Exercise: Which inhibition value is on record for O=c1cc(NCc2ccccc2)nc2n1CCCS2 ?
Key: -14.4

Exercise: Which inhibition value is on record for CC(=O)OCC[N+](C)(C)C ?
Key: 11.3

Exercise: Which inhibition value is on record for O/N=C/c1ccc(OCC(O)COc2ccc(/C=N/O)cc2)cc1 ?
Key: -3.4

Exercise: Which inhibition value is on record for COc1ccc2c(C)nc(Nc3nc(C)cc(C)n3)nc2c1 ?
Key: 14

Exercise: Which inhibition value is on record for COc1ccc(C2CC(=O)C(C=NCCN3CCOCC3)=C(O)C2)cc1 (stereo unspecified) ?
Key: 14.9

Exercise: Which inhibition value is on record for Cn1c(Cl)cnc1C1CC(=O)c2cc(Cl)ccc2O1 (stereo unspecified) ?
Key: 16.5

Exercise: Which inhibition value is on record for CCn1cc(C(=O)O)c(=O)c2cc(F)c(N3CCNCC3)nc21 ?
Key: 3

Exercise: Which inhibition value is on record for CNCCCC1c2ccccc2C=Cc2ccccc21 ?
Key: 18.5

Exercise: Which inhibition value is on record for CCN1CCc2c(C#N)c(N3CCCCC3)nc(NCc3ccccc3)c2C1 ?
Key: 14.7

Exercise: Which inhibition value is on record for Cc1cc(C)n(-c2nnc(C)n2/N=C/c2ccco2)n1 ?
Key: 17.4

Exercise: Which inhibition value is on record for Cc1cccc(COc2ccc(/C(O)=C3\C(=O)C(=O)N(CCN(C)C)C3c3ccncc3)cc2)c1 (stereo unspecified) ?
Key: 9.07

Exercise: Which inhibition value is on record for Cc1cc(NC(=O)C2=C(O)c3ccccc3S(=O)(=O)N2C)no1 ?
Key: 12.9

Exercise: Which inhibition value is on record for CC1CCc2cc(F)cc3c(O)c(C(=O)NCC4CCCO4)c(=O)n1c23 (stereo unspecified) ?
Key: 4.8

Exercise: Which inhibition value is on record for CC(C)(C)c1ccc(C(O)CCCN2CCC(C(O)(c3ccccc3)c3ccccc3)CC2)cc1 (stereo unspecified) ?
Key: 25.2

Exercise: Which inhibition value is on record for Cc1nnc2n(Cc3ccccc3)c(=O)c3c4c(sc3n12)COC(C(C)C)C4 (stereo unspecified) ?
Key: 11.6

Exercise: Which inhibition value is on record for O=C(C1=C(O)C(=O)N(c2ncccn2)C1c1cccc(Cl)c1)c1ccco1 (stereo unspecified) ?
Key: 11

Exercise: Which inhibition value is on record for COCCNC(=O)c1c(N)n(CCC2=CCCCC2)c2nc3ccccc3nc12 ?
Key: 6.4

Exercise: Which inhibition value is on record for CCCC(=O)N1c2ccccc2NC2=C(C(=O)CCC2)C1c1ccc(F)cc1 (stereo unspecified) ?
Key: 8.4

Exercise: Which inhibition value is on record for COc1ccc(/C=C/C(=O)Nc2ccccc2C(=O)O)cc1OC ?
Key: 16.4

Exercise: Which inhibition value is on record for COC(=O)c1ccc(C2NC(C(=O)O)CS2)cc1 (stereo unspecified) ?
Key: 14.2

###

Listed below: inhibition values for each entry.
ASSAY INFO: inhibitors of Chlamydomonas gravitaxis, primary screen, whole organism, Chlamydomonas reinhardtii, WT vs cilia-less mutant, absorbance, 96-well (AID 463189);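 further: 0% = wild type cc124 cells in DMSO and 100% = ciliumless bld1 mutant cells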
CONDITION PARAMETERS: OD600 absorbance, 2 days, at 10 µM, stronger effect = higher value
Dear colleague, please return just the value in %, with no unit written.

CN1CCN(CCCCC(=O)c2ccccc2)CC1
68.4
COc1cc(C)nc(N(C)S(=O)(=O)c2ccccc2Cl)n1
-1.55
Cc1ccc(C2C3CN(C(C)C)CC=C3C(C#N)=C(N)C2(C#N)C#N)cc1 (stereo unspecified)
8.92
Cc1ccc2[nH]c3c(N4CCN(Cc5ccc6c(c5)OCO6)CC4)ncnc3c2c1
140
CN1CCN(C(=O)CSc2nc(-c3cccs3)ccc2C#N)CC1
21.2
COc1ccc(/C(O)=C2\C(=O)C(=O)N(CCN(C)C)C2c2cccc(OC)c2OC)cc1 (stereo unspecified)
-2.59
COc1ccc2c(=O)c(-c3nc(C)cs3)coc2c1
1.43
COc1ccc(Cn2c(=O)c3c(nc(NCCO)n3C)n(C)c2=O)cc1
-14.7
CCN1CC=C2C(C#N)=C(N)C(C#N)(C#N)[C@H](c3cccc(OC)c3OC)[C@H]2C1
-15.5
CCOc1ccc2nc(SCC(=O)Nc3ncccn3)[nH]c2c1
10.6

Exercise: Which inhibition value is on record for O=c1oc2cc(O)ccc2c2oc3cc(O)ccc3c12 ?
Key: 6.48

###

ASSAY INFO: inhibitors of TNFa-induced NFkB p65 translocation, primary screen, imaging, HUVEC, MLSMR starter and 10KST1 sets (AID 438);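 further: compound added about 3h40 before a 20 min TNFalpha stimulation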
CONDITION PARAMETERS: HUVEC TNFa-induced p65 nuclear translocation; measured here: nuclei count (cytotoxicity indicator), at 2.08 µM
Answer condition not met if cell count is under 400, and condition met if it is 400 or more.

Some entries whose results are on file:
O=C(NC1(C(F)(F)F)C(=O)Nc2c1c(=O)[nH]c(=O)n2-c1ccccc1)c1cccnc1 (stereo unspecified)
condition met
N#CCc1nc2c3c4c(sc3ncn2n1)CCCC4
condition met

Turning now to a further record.
Exercise: Does COc1ccccc1Cn1c2nc3ccccc3nc2c2c(=O)n(CC(C)C)cnc21 have a reported cell count of at least 400?
Key: condition not met

###

SYSTEM UNDER TEST: Muscarinic acetylcholine receptor M4 (Homo sapiens) (UniProt P08173)
Sequence (P08173 whole entry, looked up): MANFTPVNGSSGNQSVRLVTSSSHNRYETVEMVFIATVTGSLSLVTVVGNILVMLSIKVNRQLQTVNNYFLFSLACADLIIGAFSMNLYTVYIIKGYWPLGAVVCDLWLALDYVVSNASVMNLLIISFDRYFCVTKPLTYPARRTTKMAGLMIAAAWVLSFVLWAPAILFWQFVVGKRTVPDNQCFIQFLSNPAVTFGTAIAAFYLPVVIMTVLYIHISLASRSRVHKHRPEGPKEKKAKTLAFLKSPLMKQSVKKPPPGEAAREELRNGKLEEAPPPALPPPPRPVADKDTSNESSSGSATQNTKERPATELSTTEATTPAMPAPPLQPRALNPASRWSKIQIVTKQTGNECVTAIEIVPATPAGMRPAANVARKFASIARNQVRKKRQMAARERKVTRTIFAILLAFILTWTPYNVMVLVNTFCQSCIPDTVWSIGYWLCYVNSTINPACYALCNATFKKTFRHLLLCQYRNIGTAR
ASSAY INFO: compounds altering M4/GIRK thallium flux, either direction, primary screen, M4 allosteric agonist project, cell-based, HEK293 M4/GIRK, BTC-AM (AID 625);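 further: thallium influx through GIRK channels coupled to M4 in HEK293 cells with BTC-AM dye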
CONDITION PARAMETERS: at 10 µM, actives lie on both sides
QUANTITY: fluorescence slope
// return just the number, without any unit appended

Illustrative cases are given below, each with its answer.
CN1CCN(c2nc3c(c(=O)n(C)c(=O)n3C)n2Cc2cccc3ccccc23)CC1
0.0044
COc1cc(NC(=O)NC(C)(C(F)(F)F)C(F)(F)F)cc(OC)c1OC
0.00489
CCCCc1nc2n[nH]c(N)c2c2c1CCCC2
0.00605

Exercise: Which fluorescence slope value is on record for CCOC(=O)CNC(=O)Nc1ccccc1C(=O)OC ?
Key: 0.00626

Exercise: Which fluorescence slope value is on record for COCCNc1oc(-c2ccc(C)cc2)nc1C#N ?
Key: 0.00552

Exercise: Which fluorescence slope value is on record for CC(C)(C)NCc1cc2ccccc2[nH]c1=O ?
Key: 0.00463

###

Listed below: NADPH fluorescence slope values for each entry.
SYSTEM UNDER TEST: Voltage-gated potassium channel subunit beta-2 (Rattus norvegicus) (UniProt P62483)
Sequence (P62483 whole entry, looked up): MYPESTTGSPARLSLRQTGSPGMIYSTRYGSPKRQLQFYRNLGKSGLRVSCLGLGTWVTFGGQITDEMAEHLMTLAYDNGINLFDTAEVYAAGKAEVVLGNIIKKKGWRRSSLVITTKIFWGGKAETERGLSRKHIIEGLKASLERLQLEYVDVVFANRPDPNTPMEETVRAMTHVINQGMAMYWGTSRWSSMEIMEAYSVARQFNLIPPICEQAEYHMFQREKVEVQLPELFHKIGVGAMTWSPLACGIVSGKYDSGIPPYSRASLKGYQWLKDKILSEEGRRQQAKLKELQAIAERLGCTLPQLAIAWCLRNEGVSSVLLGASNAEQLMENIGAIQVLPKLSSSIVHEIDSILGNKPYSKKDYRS
ASSAY INFO: KvBeta positive modulators, primary screen, biochemical, NADPH fluorescence (AID 623);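 further: fluorescence intensity change per second fitted from 20 to 320 s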
CONDITION PARAMETERS: Recombinant KvBeta, NADPH fluorescence decrease slope, 10 min; at 10 µM; stronger effect = lower value
// return just the number, without any unit appended

Illustrative cases are given below, each with its answer.
CC1(C)Cc2c(c(-c3ccccc3)nc(N3CCCC3)c2C(N)=O)CO1
-0.000128
CN1CC=C2C(C#N)=C(N)C(C#N)(C#N)[C@H](c3cccc(Cl)c3)C2C1 (some centres undefined)
-4.7e-05
CN=C1c2cc3c(Br)c(OC)ccc3n2CCN1C
-5.7e-05

Exercise: Which NADPH fluorescence slope value is on record for C[C@H](CS)C(=O)N1CCC[C@H]1C(=O)O ?
Key: -4e-05

Exercise: Which NADPH fluorescence slope value is on record for Cc1nc2c(=O)n(C)c(=O)[nH]c2n1Cc1ccccc1 ?
Key: -4.2e-05
